# credit: paper PMC9879939

Provide the recorded pIC50 for the entries that follow.
Tested on: T24 bladder cancer cells
ASSAY_TEXT: MTT assay (cell viability; CI and SI derived from it)
Assay type: cell-based, human
CONDITION_PARAMETERS: T24; 72 h; max tested 100 μM; combinations: Ru-PIP gradient with fixed Olaparib
Give bare numbers, as −log10 of the molar value.

N.N.[Cl][Pt][Cl] [Cisplatin, cis-diamminedichloroplatinum(II)] ... 5.14

Alright, here's another molecule for you.
// pIC50 value for [Ru+2].c1ccc(-c2nc3c4cccnc4c4ncccc4c3[nH]2)cc1.c1ccc2nc3c4cccnc4c4ncccc4c3nc2c1.c1ccc2nc3c4cccnc4c4ncccc4c3nc2c1 [Ru-PIP, [Ru(dppz)2(PIP)]^2+] : 4.80

* * *

System: MRC5 normal human lung fibroblasts
ASSAY_TEXT: MTT assay (cell viability)
Assay type: cell-based
CONDITION_PARAMETERS: 24 h, max tested 100 μM, combinations: Ru-PIP gradient with fixed Olaparib
ENDPOINT_LABEL: pIC50
Give bare numbers, as −log10 of the molar value.

Consider N.N.[Cl][Pt][Cl] [Cisplatin, cis-diamminedichloroplatinum(II)] . Its measured pIC50 is 4.87

* * *

Test system: T24 bladder cancer cells
ASSAY_TEXT: MTT assay (cell viability; CI and SI derived from it)
Format: cell-based, human
CONDITION_PARAMETERS: Homo sapiens; T24; 48 h; max tested 100 μM; combinations: Ru-PIP gradient with fixed Olaparib
ENDPOINT_LABEL: IC50

Value of measured IC50 for the entry O=C(c1cc(Cc2n[nH]c(=O)c3ccccc23)ccc1F)N1CCN(C(=O)C2CC2)CC1 [Olaparib] : > 100 µM

* * *

System: H1975 lung cancer cells
ASSAY_TEXT: MTT assay (cell viability; CI and SI derived from it)
Format: cell-based, human
CONDITION_PARAMETERS: H1975; 24 h; max tested 100 μM; combinations: Ru-PIP gradient with fixed Olaparib
ENDPOINT_LABEL: IC50 (µM)
Numbers only, in µM.

According to the records, this molecule N.N.[Cl][Pt][Cl] [Cisplatin, cis-diamminedichloroplatinum(II)] displays IC50 of 26.6

* * *

Test system: A549 lung cancer cells
ASSAY_TEXT: MTT assay (cell viability; CI and SI derived from it)
Format: cell-based, human
CONDITION_PARAMETERS: Homo sapiens; A549; 24 h; max tested 100 μM; combinations: Ru-PIP gradient with fixed Olaparib
ENDPOINT_LABEL: IC50

For O=C(c1cc(Cc2n[nH]c(=O)c3ccccc23)ccc1F)N1CCN(C(=O)C2CC2)CC1 the molecule record lists IC50 as > 100 µM

* * *

Test system: A549 lung cancer cells
ASSAY_TEXT: MTT assay (cell viability; CI and SI derived from it)
Type: cell-based, human
CONDITION_PARAMETERS: Homo sapiens; A549; 72 h; max tested 100 μM; combinations: Ru-PIP gradient with fixed Olaparib
ENDPOINT_LABEL: IC50

IC50 reading for O=C(c1cc(Cc2n[nH]c(=O)c3ccccc23)ccc1F)N1CCN(C(=O)C2CC2)CC1 [Olaparib] : > 100 µM
